Task for the reader: assign each of the following compounds its reported composite z-score.
assay: probe aCHRDL2 binding to arrayed compounds – biochemical, biotinylated probe, 635/667 nm fluorescence, primary screen (AID 1100); details: small-molecule microarray, higher = more signal
Answers are plain numbers.

C=C(C(=O)CC[C@H](OC(C)=O)c1ccccc1OCCO)C(C)C: 0.006
CC[C@@H]1C=C(C(=O)O)[C@H](c2ccc(C)cc2)N1S(=O)(=O)c1ccc(C)cc1: 0.335
CCCC[C@H]1C[C@@H]1[C@@H]1N(P(=O)(c2ccccc2)c2ccccc2)C[C@@](O)(c2ccccc2)CC12CC2: 1.28
COc1ccc([Si](C)(C)[C@H]2[C@H](CCn3cc([C@H](O)c4ccccc4)nn3)O[C@@]3(C(=O)N(C)c4ccccc43)[C@@H]2C)cc1: 0.376
C=CCNC(=O)[C@@H]1[C@H]2C(=O)O[C@H](c3ccccc3)[C@H](c3ccccc3)N2[C@H](c2ccc(OCCO)cc2)[C@@]12C(=O)N(C(=O)OCCOC)c1ccc(C#CCC(C(=O)OC)C(=O)OC)cc12: 0.328

Hi team, please reply with composite z-score for each item in this list.
1. CS(=O)(=O)CCOC(=O)C1=CC(CCCO)=CC(c2ccc(CN3CCCC3)cc2)N(Cc2cccc(OC(F)(F)F)c2)C=C1C(=O)OCCS(C)(=O)=O (configuration not stated)
2. CCOC(=O)C1=CC[C@H]2C(=O)N(c3ccccc3)C(=O)[C@@H]12

## Result
0.367
0.0364

Origin of the recorded values: PubChem BioAssay
